Molecular target: SMARCA4 (Homo sapiens (Human))
Sequence (P51532 whole entry): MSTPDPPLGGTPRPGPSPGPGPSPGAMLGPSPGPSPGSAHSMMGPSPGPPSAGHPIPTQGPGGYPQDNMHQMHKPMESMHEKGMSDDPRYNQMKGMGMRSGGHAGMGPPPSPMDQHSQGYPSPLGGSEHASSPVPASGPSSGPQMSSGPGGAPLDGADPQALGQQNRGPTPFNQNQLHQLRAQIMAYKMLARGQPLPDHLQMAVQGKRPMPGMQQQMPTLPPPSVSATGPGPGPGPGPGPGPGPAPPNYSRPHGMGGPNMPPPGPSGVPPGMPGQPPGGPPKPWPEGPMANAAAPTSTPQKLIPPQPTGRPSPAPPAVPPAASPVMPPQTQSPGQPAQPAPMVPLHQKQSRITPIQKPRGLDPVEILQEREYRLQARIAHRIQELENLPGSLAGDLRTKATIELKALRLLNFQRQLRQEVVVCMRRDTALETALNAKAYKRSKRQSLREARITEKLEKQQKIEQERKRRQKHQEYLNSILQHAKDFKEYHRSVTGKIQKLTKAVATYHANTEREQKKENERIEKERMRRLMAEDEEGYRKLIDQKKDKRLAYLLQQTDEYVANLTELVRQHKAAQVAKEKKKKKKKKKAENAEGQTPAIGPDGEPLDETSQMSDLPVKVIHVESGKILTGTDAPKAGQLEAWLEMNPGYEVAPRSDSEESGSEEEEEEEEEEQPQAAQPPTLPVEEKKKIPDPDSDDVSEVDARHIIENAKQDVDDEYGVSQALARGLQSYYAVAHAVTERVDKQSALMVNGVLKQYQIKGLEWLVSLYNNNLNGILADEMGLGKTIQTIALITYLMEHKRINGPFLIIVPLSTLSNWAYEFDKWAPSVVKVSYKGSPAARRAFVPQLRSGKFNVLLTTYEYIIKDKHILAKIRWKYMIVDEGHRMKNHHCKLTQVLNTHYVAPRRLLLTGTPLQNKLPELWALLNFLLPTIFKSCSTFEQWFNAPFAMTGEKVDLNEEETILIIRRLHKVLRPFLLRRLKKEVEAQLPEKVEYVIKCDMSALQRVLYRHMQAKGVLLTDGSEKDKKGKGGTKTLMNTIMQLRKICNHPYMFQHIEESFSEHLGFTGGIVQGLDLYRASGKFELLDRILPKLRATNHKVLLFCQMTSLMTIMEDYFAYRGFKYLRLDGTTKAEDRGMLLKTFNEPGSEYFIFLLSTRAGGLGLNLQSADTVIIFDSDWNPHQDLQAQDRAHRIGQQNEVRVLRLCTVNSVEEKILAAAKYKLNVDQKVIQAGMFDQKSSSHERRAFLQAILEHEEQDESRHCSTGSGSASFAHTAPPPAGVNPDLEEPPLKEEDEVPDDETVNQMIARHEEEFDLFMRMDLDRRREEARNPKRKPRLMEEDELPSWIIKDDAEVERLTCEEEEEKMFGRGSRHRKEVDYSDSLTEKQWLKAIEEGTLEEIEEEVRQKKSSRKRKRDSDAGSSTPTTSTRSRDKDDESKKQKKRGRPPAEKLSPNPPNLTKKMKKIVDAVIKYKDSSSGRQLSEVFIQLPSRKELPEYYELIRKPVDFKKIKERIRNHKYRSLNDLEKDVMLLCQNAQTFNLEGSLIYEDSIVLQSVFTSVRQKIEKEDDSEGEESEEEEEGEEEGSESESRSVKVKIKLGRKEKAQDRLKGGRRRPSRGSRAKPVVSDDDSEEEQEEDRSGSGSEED
Assay: SMARCA4 HiBiT degradation assay in HeLa cells
Type: cell-based
Settings: HeLa, 18 hours, read-out: Dmax % (SM4-HeLa) maximum SMARCA4 degradation within the concentrations tested
Some compounds, each annotated with its measured Dmax.

Cc1ncsc1-c1ccc([C@H](C)NC(=O)[C@@H]2C[C@@H](O)CN2C(=O)[C@@H](c2cc(O[C@@H](C)C(=O)N3CCC(N4CCN5c6cc(-c7ccccc7O)nnc6NC[C@H]5C4)CC3)no2)C(C)C)cc1 : 50 to 75%

## Task State the recorded Dmax for this entry: Cc1ncsc1-c1ccc([C@H](C)NC(=O)[C@@H]2C[C@@H](O)CN2C(=O)[C@@H](c2cc(OCCN3CCC(N4C[C@@H]5CNc6nnc(-c7ccccc7O)cc6N5C[C@@H]4C)C3)no2)C(C)C)cc1 (stereo partly drawn)
## Result > 75%

## Task State the recorded Dmax for this entry: `Cc1ncsc1-c1ccc([C@H](C)NC(=O)[C@@H]2C[C@@H](O)CN2C(=O)[C@@H](c2cc(OCCN3CCC(C(=O)N4CCN5c6cc(-c7ccccc7O)nnc6NC[C@H]5C4)CC3)no2)C(C)C)cc1`
## Result > 75%

## Task State the recorded Dmax for this entry: Cc1ncsc1-c1ccc([C@H](C)NC(=O)[C@@H]2C[C@@H](O)CN2C(=O)[C@@H](c2cc(O[C@@H](C)CN3CCC(N4CCN5c6cc(-c7ccccc7O)nnc6NC(C)C5C4)CC3)no2)C(C)C)cc1 (stereo partly drawn)
## Result > 75%

## Task State the recorded Dmax for this entry: Cc1ncsc1-c1ccc([C@H](C)NC(=O)[C@@H]2C[C@@H](O)CN2C(=O)[C@@H](c2cc(OCCN3CCC(N4CCN5c6cc(-c7ccccc7O)nnc6NC[C@H]5C4)C(C)C3)no2)C(C)C)cc1 (single isomer, unassigned)
## Result > 75%
